Listing of entries alongside the reported protein stability index.
B1: MLL5 (parent)
chain: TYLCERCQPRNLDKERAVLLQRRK

# Variants of: B1
# procedureDetails: protein stability index of a GFP-peptide fusion (GPS, HEK-293T) (PSI 1-6); higher = more stable;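 also: lentivirally expressed fusions sorted by FACS into six bins by GFP to DsRed ratio, PSI derived from sequencing read proportions per bin multiplied by bin number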
# statedConditions: c terminus: a fixed tail appended

| mutantCode | protein stability index |
| --- | --- |
| L3M | 2.02 |
| R22A | 2 |
| R16N | 2.01 |
